Assay: Stability of SDC-TRAPs in mouse plasma
Assay type: in vitro ADME
Details: 37° C.
Range-based classes on measured % Remaining (1 h): A: < 30%; B: ≥ 30% and < 50%; C: ≥ 50%

CCNC(=O)c1nnc(-c2cc(C(C)C)c(O)cc2O)n1-c1ccc(C(=O)N2CCC3(CC2)OB([C@H](CC(C)C)NC(=O)[C@H](Cc2ccccc2)NC(=O)c2cnccn2)OC3(C)C)cc1 = A
CC(C)C[C@H](NC(=O)[C@H](Cc1ccccc1)NC(=O)c1cnccn1)B1OC(C)(C)C2(CCN(C(=O)CCn3ccc4cc(-n5c(O)nnc5-c5cc(C(C)C)c(O)cc5O)ccc43)CC2)O1 = A
CC(C)C[C@H](NC(=O)[C@H](Cc1ccccc1)NC(=O)c1cnccn1)B1OC(C)(C)C(C)(c2ccc(C(=O)N3CCN(c4ccc(-n5c(O)nnc5-c5cc(C(C)C)c(O)cc5O)cc4)CC3)cc2)O1 (some centres unmarked) = A
CCNC(=O)c1nnc(-c2cc(C(C)C)c(O)cc2O)n1-c1ccc2c(ccn2CCC2CCN(C(=O)c3ccc(C4(C)OB([C@H](CC(C)C)NC(=O)[C@H](Cc5ccccc5)NC(=O)c5cnccn5)OC4(C)C)cc3)CC2)c1 (some centres unmarked) = C
CCNC(=O)c1nnc(-c2cc(C(C)C)c(O)cc2O)n1-c1ccc(Oc2ccc(C(=O)NCCCCCCC3(C)OB([C@H](CC(C)C)NC(=O)[C@H](Cc4ccccc4)NC(=O)c4cnccn4)OC3(C)C)cc2)cc1 (some centres unmarked) = C
CCNC(=O)c1nnc(-c2cc(C(C)C)c(O)cc2O)n1-c1ccc(C(=O)N(C)CC[C@]23OB([C@H](CC(C)C)NC(=O)[C@H](Cc4ccccc4)NC(=O)c4cnccn4)O[C@H]2C[C@H]2C[C@@H]3C2(C)C)cc1 = C

State the class of the compound shown: `CCNC(=O)c1nnc(-c2cc(C(C)C)c(O)cc2O)n1-c1ccc(Oc2ccc(C(=O)NCC[C@]34OB([C@H](CC(C)C)NC(=O)[C@H](Cc5ccccc5)NC(=O)c5cnccn5)O[C@H]3C[C@@H]3C[C@H]4C3(C)C)cc2)cc1`
C

Now try `CCNC(=O)c1nnc(-c2cc(C(C)C)c(O)cc2O)n1-c1ccc(CN2CCC(C(=O)N3CCC4(CC3)OB([C@H](CC(C)C)NC(=O)[C@H](Cc3ccccc3)NC(=O)c3cnccn3)OC4(C)C)CC2)cc1` .
B

Now try CC(C)C[C@H](NC(=O)[C@H](Cc1ccccc1)NC(=O)c1cnccn1)B1OC(C)(C)C(C)(c2ccc(C(=O)N3CCC(CCn4ccc5cc(-n6c(O)nnc6-c6cc(C(C)C)c(O)cc6O)ccc54)CC3)cc2)O1 (some centres unmarked) .
C
